Origin of measurements: PubChem BioAssay (NCI)

- method-notes: NCI Yeast Anticancer Drug Screen. Data for the rad50 strain (AID 155);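 further: 0% = growth of vehicle-only cultures of the same strain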
- test-conditions: S. cerevisiae rad50 strain growth inhibition; at 5.0 µM (retest, dose inferred, filed as 0.5); hits give high values
The panel holds about 79,000 compounds, 15% with a hit somewhere; the sample as a whole holds those more often.

compound	growth inhibition, %
O=C1C=CC(=O)c2c(O)c(N3CCN(CCO)CC3)c(Cl)c(O)c21	37
O=C(NC(=S)Nc1ncc([N+](=O)[O-])s1)c1ccccc1C(=O)NC(=S)Nc1ncc([N+](=O)[O-])s1	-5
O=Nc1ccccc1N=O	48
CC(=O)C1C(S)CC2C3CC=C4CC(O)CCC4(C)C3CCC21C (stereo not given)	1
O=C1CCSC(=S)N1c1ccc(N=Nc2ccccc2)cc1	57
O=C(C(Oc1ccc(Cl)cc1)Oc1ccc(Cl)cc1)N(O)c1ccccc1OCc1ccccc1	14
OCC(CO)C1c2cccc3ccc4cccc1c4c23	0
CN(C)c1ccc(C(=C2C=CC(=[N+](C)C)C=C2)c2ccc(N(C)C)cc2)cc1 (tested in a mixture with another compound)	98
Cc1[nH]c2ccccc2c1C(c1ccccc1)c1c(C)[nH]c2ccccc12	2
CCC[CH2][Sn]([CH2]CCC)([S]/C(C#N)=N/N=C/c1ccc(N(C)C)cc1)[S]/C(C#N)=N/N=C/c1ccc(N(C)C)cc1	57
[NH-]c1ccccc1[S-].[NH-]c1ccccc1[S-].[Zn]	0
Cc1cc(N(CCOS(C)(=O)=O)CCOS(C)(=O)=O)ccc1C=Nc1ccc(-c2csc(-c3ccc(Cl)cc3)n2)cc1	22
Cc1ccc(-c2c3c(cc4cc(C)ccc24)C(=O)OC3=O)cc1	12
CCCN=Cc1cnc(C#N)c(N)n1	4
COCCN1C(=O)C2c3[nH]c4ccccc4c3C3CCC(C(C)(C)C)CC3C2C1=O (stereo not given)	-2
CC(=O)OCC1(O)OCC(OC(C)=O)C(OC(C)=O)C1OC(C)=O (stereo not given)	18
CC1=C(C(=O)Nc2ccccc2)C(c2cccc([N+](=O)[O-])c2)C(C(=O)Nc2ccccc2)=C(C)N1	4
CCN(CC)CCOc1ccc(/C(C#N)=C/c2ccc(C(F)(F)F)cc2)cc1	36
COc1ccc(CN=C(N)N)c2ccccc12	5
O=S1(=O)CS(=O)(=O)OCCCO1	10
S=C(NC(=S)Nc1ccc(Cl)cc1)Nc1ccc(Cl)cc1	4
CCCCCCCCCCCCCCCCCO	-4
CC#CS(=O)(=O)c1ccccc1	1
Cc1c(C2CC(=O)NC2=O)c2ccccc2n1C (stereo not given)	3
CCOC(=O)[C@]12CCC[C@@]1(O)NC(=O)c1cnccc12	33
CCC[CH2][Sn]([CH2]CCC)([O]C(=O)c1cccc(F)c1)[O]C(=O)c1cccc(F)c1	26
CCCCCCCCCCCCOC(=O)C[n+]1cccc(C(=O)Nc2ccc(Cl)cc2)c1	76
O=C(Oc1cccc2cccnc12)c1ccccc1	4
O=Cc1cc(O)ccc1Br	33
Cc1c2cc[n+](C)cc2c(C)c2c1sc1ccccc12	21
O=C(CCN1CCCCC1)/C(=C\c1ccc(Cl)cc1)c1ccccc1	5
Cc1occc1C(=S)Nc1ccc(Cl)c(C(=O)OCC2CC2)c1	-14
CN(C)C(=S)/N=c1\ss/c(=N/C(=S)N(C)C)n1-c1ccc([N+](=O)[O-])cc1	6
CN(C)CCC(/C=C/c1ccccc1)=N\Nc1ccc(Cl)c(Cl)c1	98
Clc1ccc2[nH]c(-c3ccccc3)c(-c3ccccn3)c2c1	81
C=C(Cl)C(=NC(C)(C)C)Nc1ccccc1C	27
CCOc1c(N=Nc2ccccc2OC)c(C)nn1C(N)=S	6
NNCc1cc(Cl)c2cccnc2c1O	18
O=[N+]([O-])c1cccc(S(=O)(=O)N/N=C/c2cc(I)cc([N+](=O)[O-])c2O)c1	5
CCOC(=O)c1cnc(SCc2ccc(Cl)cc2Cl)nc1Cl	1
O=C(O)CCCc1ccc2c(c1Br)C=CC2	10
CCCCCCCN(CCCCCCC)CC(O)c1ccc2ccc3ccccc3c2c1 (stereo not given)	19
Nc1ccccc1OCC(O)CN1CCN(Cc2ccccc2)CC1 (stereo not given)	-7
O=C(/C=C/c1ccccc1)C1(c2ccccc2)CC1	-125
CCC1(c2ccc(N3C(=O)c4ccccc4C3=O)cc2)CCC(=O)NC1=O (stereo not given)	1

---

- method-notes: NCI Yeast Anticancer Drug Screen. Data for the rad50 strain (AID 155);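 further: 0% = growth of vehicle-only cultures of the same strain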
- test-conditions: S. cerevisiae rad50 strain growth inhibition; at 50.0 µM
Compounds without any hit were thinned out: in the full panel of roughly 79,000, 15% have a hit. Activity calls are given as the source filed them. No stated cut-off is given here; in the data, active means growth inhibition above about 70%; inactive means the rest.
Labels: active, inactive

compound	category-label
O=C(CCSCCC(=O)NNc1ccccc1)NNc1ccccc1	inactive
COC(=O)c1ccc(OC)cc1	inactive
CCC(CC)COC(=O)C(C)=O	inactive
CC1SC(=S)N(c2ccc(Cl)cc2)C1=O (configuration not stated)	active
CC(=O)Oc1cc2c(cc1OC(C)=O)OCC(c1ccc(C)cc1)C2 (configuration not stated)	inactive
CCOC1(OCC)Oc2c(Cl)c(Cl)c(Cl)c(Cl)c2OC1(OCC)OCC	active
COc1cc(C(c2cc3c(cc2O)OCO3)N2CCCCC2)cc(OC)c1OC (configuration not stated)	inactive

---

- method-notes: NCI Yeast Anticancer Drug Screen. Data for the cln2 rad14 strain (AID 165);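 further: 0% = growth equal to vehicle treated cultures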
- test-conditions: S. cerevisiae cln2 rad14 strain, at 50.0 µM (retest, dose inferred, filed as 5.0), hits give high values
Compounds without any hit were thinned out: in the full panel of roughly 79,000, 15% have a hit.
Some compounds, each annotated with its measured growth inhibition.
reported-endpoint: growth inhibition (%)

compound	reported-endpoint	test-value
CCN(CC)Cc1c(-c2ccccc2)oc(-c2ccccc2)c1CN(CC)CC	growth inhibition	-1
O=[N+]([O-])c1ccc2c(c1)Cc1cc(O)c(I)cc1-2	growth inhibition	91
Cc1cc([N+](=O)[O-])cc(Cl)c1O	growth inhibition	69
CCN(CC)CCCNc1nccc2c(C)c3[nH]c4ccncc4c3cc12	growth inhibition	23
CC(=O)C1C(S)CC2C3CC=C4CC(O)CCC4(C)C3CCC21C (stereo not given)	growth inhibition	98
OC1(CCc2ccccc2)COC(C(F)(F)F)(C(F)(F)F)C1 (stereo not given)	growth inhibition	23
Cc1c2c(c(O)c3c(O)cccc13)C(=O)C1(O)C(=O)C(C(N)=O)C(O)C(N(C)C)C1C2 (stereo not given)	growth inhibition	99
CC(=O)OC1CCC23COC(CC(C)C2C)C3(Br)C1 (stereo not given)	growth inhibition	-5
O=c1[nH]ccc(CNC23CC4CC(CC(C4)C2)C3)c1O	growth inhibition	11
CC(C)(C)C1=NC(=S)SC2=NC(=O)C3(NN21)c1ccccc1-c1ccccc13	growth inhibition	45
CCOc1ccc2c(c1)nc1ccccc1[n+]2CC	growth inhibition	9
Cc1ccc(C(=Nc2ccccc2)N=P(c2ccccc2)(c2ccccc2)c2ccccc2)cc1	growth inhibition	99
Cc1ccc(C)c(N2C(=O)C(=O)C(c3nc4ccccc4o3)C(=O)C2=O)c1	growth inhibition	99
Cc1cc(O)c2c(c1)C(=O)c1c(c(O)cc(O)c1-c1c(O)cc(O)c3c1C(=O)c1cc(C)cc(O)c1C3=O)C2=O	growth inhibition	79
CCOC(=O)NC(NC(=O)OCC)C(=O)Nc1cccc2c(OC(=O)C(NC(=O)OCC)NC(=O)OCC)c(N=Nc3ccc(S(=O)(=O)Nc4nccs4)cc3)cc(N=Nc3ccc(S(=O)(=O)Nc4nccs4)cc3)c12 (tested in a mixture with another compound)	growth inhibition	70
O=C(CNC(=O)c1ccccc1)NNc1ccccc1	growth inhibition	68
CC(C)=Cc1cc2c(cc1O)CCC1C2CC[C@@]2(C)C1CC[C@@H]2O (stereo not given in full)	growth inhibition	29
O=[N+]([O-])c1ccc2c(c1)OCO2	growth inhibition	0
O=C(O)CSc1nc(-c2ccccc2)c(-c2ccccc2)n1-c1ccccn1	growth inhibition	4
CCC1(C)CCC2(C)C(CCC3C4(C)CCCC32OC4=O)C1 (stereo not given)	growth inhibition	92

---

- method-notes: NCI Yeast Anticancer Drug Screen. Data for the sgs1 mgt1 strain (AID 161);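 further: 0% = growth of cultures given vehicle only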
- test-conditions: S. cerevisiae sgs1 mgt1 strain, at 5.0 µM (retest, dose inferred, filed as 0.5), hits give high values
The panel holds about 79,000 compounds, 15% with a hit somewhere; the sample as a whole holds those more often.
reported-endpoint: growth inhibition (%)

molecule	measurement-unit	test-value
Cc1ccc(S(=O)(=O)NC(=O)CC2CCCCC2)cc1	%	-9
NNc1c(Cl)c(F)c(Cl)c(F)c1Cl	%	4
O=C(O)CC(CCCc1ccccc1)C(=O)O (centres undefined)	%	-1
O=C(Nc1c(Cl)cccc1Cl)OCCOc1ccc(Cl)cc1Cl	%	47
CN(C)CC1CCC/C(=C\c2ccc(Cl)cc2)C1=O (centres undefined)	%	-28
CCS(CC)(CC)CC1CCCC2=CCC(P(=O)(c3ccccc3)c3ccccc3)CC21 (centres undefined)	%	11
O=C(/C=C/C(=O)c1ccc(O)cc1)c1ccccc1	%	-3
COc1ccc(/C=C(\C#N)c2ccccc2)cc1OC	%	1
CCCCCN(CCCCC)CC(O)c1cc2ccccc2c2ccccc12 (centres undefined)	%	18
C/C(=C/c1ccccc1)C(=O)C1C(c2ccccc2)CC(O)C(C)C1c1ccccc1 (centres undefined)	%	10
Cc1ccc2nc(C[n+]3ccc4ccccc4c3)ccc2c1	%	-2
CC(C)N=C1NS(=O)(=O)c2ccccc21	%	0
CN(C)c1ccc(C2C=C(c3ccccc3)Oc3ccccc32)cc1 (centres undefined)	%	97
CN(C)c1ccc(/C=N/N=C(\C#N)[S][Sn]([Cl])([c]2ccccc2)[c]2ccccc2)cc1	%	98
Cc1nc(N)sc1N=Nc1cccc(Cl)c1Cl	%	3
Cc1cc(Cl)c2c(c1)C(=N/O)/C(=C\c1ccco1)O2	%	96
C=C1C(=O)O[C@H]2[C@H](OC(C)=O)[C@@H](C)CCC/C(C)=C/CC[C@@]3(C)O[C@@H]3C[C@@H]12	%	20
N#Cc1ccc([N+](=O)[O-])o1	%	9
CC[n+]1c(/C=C/c2cc(C(=O)OC)n3c2sc2ccccc23)sc2ccccc21	%	3
O=C(O)/C(Cl)=C(\Cl)C(=O)Nc1cccc(C(F)(F)F)c1	%	68
CC(C)(C)NC1=NC(C(F)(F)F)(C(F)(F)F)NC(=O)N1	%	-52
CCCCCCCCCC(=O)NN=C(C)C	%	-59
Oc1ccccc1C(c1ccccc1O)C(Cl)(Cl)Cl	%	94
c1ccc(CN2CCc3[nH]c4ccccc4c3C2)cc1	%	-4
